Ref: patent US20260209362A1

Biological target: T1, human IL-12Rβ2 expressed on cells (human, UniProt Q99665 24-862)
T1 sequence: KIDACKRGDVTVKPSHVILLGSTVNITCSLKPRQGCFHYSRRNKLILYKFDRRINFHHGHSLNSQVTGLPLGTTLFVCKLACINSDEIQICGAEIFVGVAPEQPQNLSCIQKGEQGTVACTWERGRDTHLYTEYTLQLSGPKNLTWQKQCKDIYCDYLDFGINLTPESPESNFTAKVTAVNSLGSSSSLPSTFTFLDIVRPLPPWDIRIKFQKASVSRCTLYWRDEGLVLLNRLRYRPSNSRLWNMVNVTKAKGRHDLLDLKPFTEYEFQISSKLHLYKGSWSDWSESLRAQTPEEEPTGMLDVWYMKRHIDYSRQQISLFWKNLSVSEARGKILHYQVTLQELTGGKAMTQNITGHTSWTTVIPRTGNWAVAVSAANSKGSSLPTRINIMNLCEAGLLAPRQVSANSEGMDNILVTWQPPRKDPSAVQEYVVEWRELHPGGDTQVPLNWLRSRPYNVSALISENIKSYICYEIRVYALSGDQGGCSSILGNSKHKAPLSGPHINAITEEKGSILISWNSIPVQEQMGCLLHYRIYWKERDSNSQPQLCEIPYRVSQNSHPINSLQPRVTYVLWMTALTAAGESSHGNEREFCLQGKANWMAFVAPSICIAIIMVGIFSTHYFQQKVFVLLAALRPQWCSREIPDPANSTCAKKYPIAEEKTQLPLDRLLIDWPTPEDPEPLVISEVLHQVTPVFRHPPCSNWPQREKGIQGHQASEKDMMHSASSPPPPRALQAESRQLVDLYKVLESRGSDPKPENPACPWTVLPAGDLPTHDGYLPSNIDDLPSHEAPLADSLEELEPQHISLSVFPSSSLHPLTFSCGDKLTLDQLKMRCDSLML
Experiment: cell-based or functional assay
Could you please report measured % Specific Cell Lysis at 0.025 ug/mL for the items listed next?
Numbers only, in %.

Check out these entries, answers already filled in.
Binder | Units Of Measure | Endpoint Result
20401-FcDE (Fc fusion) VHH-Fc chain: QVQLQESGGGLVQAGESLTLSCIASGVIKDYAMGWFRQAPGKEREFVAAISWSGVSIYYADSVKGRFTISRDNAKNTVYLQMNSLEPEDTAVYYCAGTEGAYTVAGGSTFGYDMDYWGKGTQVTVSSAPELLGGPDVFLFPPKPKDTLMISRTPEVTCVVVDVSHEDPEVKFNWYVDGVEVHNAKTKPREEQYNSTYRVVSVLTVLHQDWLNGKEYKCKVSNKALPAPEEKTISKAKGQPREPQVYTLPPSRDELTKNQVSLTCLVKGFYPSDIAVEWESNGQPENNYKTTPPVLDSDGSFFLYSKLTVDKSRWQQGNVFSCSVMHEALHNHYTQKSLSLSPGK | % | 47.5
anti-IL-12Rβ2-VHH-FcDE clone 21053 (Fc fusion) QVQLQESGGGLVQAGGSLRLSCAASGRTFSNYAMAWFRQAPGTEREFVAGLSGSGGDTEFYDDSVKGRFAISRDSAKNTVWLQMNSLKPEDTAVYYCAAATHVVVHYGLVRRRGTYDYWGQGTQVTVSSAPELLGGPDVFLFPPKPKDTLMISRTPEVTCVVVDVSHEDPEVKFNWYVDGVEVHNAKTKPREEQYNSTYRVVSVLTVLHQDWLNGKEYKCKVSNKALPAPEEKTISKAKGQPREPQVYTLPPSRDELTKNQVSLTCLVKGFYPSDIAVEWESNGQPENNYKTTPPVLDSDGSFFLYSKLTVDKSRWQQGNVFSCSVMHEALHNHYTQKSLSLSPGK | % | 51.6

// switching to the query binder
Quick check: % Specific Cell Lysis at 0.025 ug/mL of anti-IL-12Rβ2-VHH-FcDE clone 21050 (Fc fusion) QVQLQESGGGLVQAGGSLRLSCAASGRTFNNYAMAWFRQAPGKEREFIAAITRSDTTLYIDSVKGRFTISRDNAKNTVALQMNSLKPEDTAVYYCAAGMPYSYSDYPRDSKYDYWGRGTQVTVSSAPELLGGPDVFLFPPKPKDTLMISRTPEVTCVVVDVSHEDPEVKFNWYVDGVEVHNAKTKPREEQYNSTYRVVSVLTVLHQDWLNGKEYKCKVSNKALPAPEEKTISKAKGQPREPQVYTLPPSRDELTKNQVSLTCLVKGFYPSDIAVEWESNGQPENNYKTTPPVLDSDGSFFLYSKLTVDKSRWQQGNVFSCSVMHEALHNHYTQKSLSLSPGK ?
50.1
